# target entity: human CSNK1D (Homo sapiens, UniProt P48730)
# Construct: expressed in transfected cells
# Sequence (P48730 whole entry): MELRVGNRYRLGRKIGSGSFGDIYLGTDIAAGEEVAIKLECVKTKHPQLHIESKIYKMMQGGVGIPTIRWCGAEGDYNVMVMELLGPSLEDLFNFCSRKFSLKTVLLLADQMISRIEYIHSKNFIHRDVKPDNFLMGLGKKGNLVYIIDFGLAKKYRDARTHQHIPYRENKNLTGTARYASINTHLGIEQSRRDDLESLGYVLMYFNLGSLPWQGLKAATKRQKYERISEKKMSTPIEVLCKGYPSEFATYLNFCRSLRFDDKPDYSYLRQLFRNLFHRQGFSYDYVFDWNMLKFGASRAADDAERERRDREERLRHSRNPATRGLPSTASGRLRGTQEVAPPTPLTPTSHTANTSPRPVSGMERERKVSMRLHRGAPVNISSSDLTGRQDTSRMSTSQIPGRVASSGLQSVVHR
# experiment notes: Whole Cell nBRET CSNK1D Binding Assay
# experimental context: living CHO cells stably expressing human CSNK1D tagged with nanoluciferase; NanoBret tracer 130 nM; 2 hours at 37 C
pIC50: −log10 of the molar value.
test readout: pIC50

Example entries and their recorded answers appear below.
INSERT INTO assay_data (compound, quantitative_readout) VALUES
  ('Cc1cc(-c2c(-c3ccc(F)cn3)nn3c2CNCC3)c2cn[nH]c2n1', 6.28),
  ('COCC1CCc2c(-c3cc(C)nc4[nH]ncc34)c(-c3ccc(F)cn3)nn2C1 (single isomer, unassigned) [Example 297]', 6.53),
  ('Fc1cnc(-c2nn3c(c2-c2ccnc4[nH]ncc24)CCCC3)c(F)c1', 6.62),
  ('Cc1cc(-c2c(-c3ccc(F)c(C)n3)nn3c2COC(C)(C)C3)c2c(C)n[nH]c2n1', 5.56),
  ('Cc1cc(-c2c(-c3ccc(F)cc3)nn3c2[C@H]2CC[C@@H]3C2)c2cn[nH]c2n1 (single isomer, unassigned)', 8.10);

[A] Cc1cc(-c2c(-c3ccc(F)cn3)nn3c2CO[C@@H](C)C3)c2cn[nH]c2n1 (single isomer, unassigned) [Example 88]
[B] COCC1(F)CCc2c(-c3cc(C)nc4[nH]ncc34)c(-c3ccc(F)cn3)nn2C1 (single isomer, unassigned)
[C] Cc1nc(-c2c(-c3ccc(F)cn3)nn3c2CC[C@@H]2C[C@@H]23)c2cn[nH]c2n1 (relative stereo)
Endpoint returns the given compounds ordered by ascending pIC50. Please list the labels in the order you were asked to rank them.
B, C, A

[I] CC1(C)Cn2nc(-c3ccc(F)cn3)c(-c3ccnc4[nH]nc(Cl)c34)c2CO1
[II] [2H]C([2H])([2H])[C@]1(C(F)(F)F)Cn2nc(-c3ccc(F)cn3)c(-c3ccnc4[nH]nc(C)c34)c2CO1 (single isomer, unassigned)
[III] CC1(C)Cn2nc(-c3ccc(F)cn3)c(-c3ccnc(NC(=O)CC(F)(F)F)c3)c2CO1
[IV] C[C@]1(C(F)(F)F)Cn2nc(-c3ccc(F)cc3)c(-c3ccn4nccc4c3)c2CO1 (single isomer, unassigned)
Output the entries ranked by pIC50 from maximum down to minimum. Please list the labels in the order you were asked to rank them.
III, I, IV, II
(III: 8.10, I: 7.85, IV: 6.16, II: 5.65)
